Tested on: PBMC
Conditions: human
Can you tell me CC50 for the items I'm about to list?
One number for each entry, in µM.

I would be grateful if you could provide CC50 for each of the following entries.
1. COC(=O)N[C@H](C(=O)N1CCC[C@H]1c1ncc(-c2ccc(-c3ccccc3)cc2)[nH]1)C(C)C
2. C=CC[C@H](NC(C)=O)C(=O)N1CCC[C@H]1c1ncc(-c2ccc(-c3ccccc3)cc2)[nH]1
3. C[C@H](NC(=O)OC(C)(C)C)C(=O)N1CCC[C@H]1c1ncc(-c2ccc(-c3ccccc3)cc2)[nH]1
4. COC(=O)N[C@H](C(=O)N1CCC[C@H]1c1ncc(-c2ccc(-c3ccc(C)cc3)cc2)[nH]1)C(C)C
5. COC(=O)N[C@H](C(=O)N1CCC[C@H]1c1nc(Cl)c(-c2ccc(N=[N+]=[N-])cc2)[nH]1)C(C)C
6. COC(=O)N[C@H](C(=O)N1CCC[C@H]1c1ncc(-c2ccc(-c3ccc(OC)cc3)cc2)[nH]1)C(C)C

Result:
[14, 100, 16, 90, 94, 85]

###

System: PBMC
Conditions: human
measuredQuantity: CC50

Respectfully, I request CC50 for each entry included below.
1. COC(=O)N[C@H](C(=O)N1CCC[C@H]1c1ncc(-c2ccc(N=[N+]=[N-])cc2)[nH]1)C(C)C
2. COC(=O)N[C@H](C(=O)N1CCC[C@H]1c1ncc(-c2ccc(C)cc2)[nH]1)C(C)C

Result:
["> 100 µM", "> 100 µM"]

###

Tested on: PBMC
Conditions: human
measuredQuantity: CC50

As a guide, the following entries are already answered.
1. COC(=O)N[C@H](C(=O)N1CCC[C@H]1c1ncc(-c2ccc([N+](=O)[O-])cc2)[nH]1)C(C)C; > 100 µM
2. COC(=O)N[C@H](C(=O)N1CCC[C@H]1c1ncc(-c2ccc(S(=O)(=O)c3ccccc3)cc2)[nH]1)C(C)C; > 100 µM
3. COC(=O)N[C@H](C(=O)N1CCC[C@H]1c1ncc(-c2ccc(OC)cc2)[nH]1)C(C)C; > 100 µM
4. COC(=O)N[C@H](C(=O)N1CCC[C@H]1c1ncc(-c2ccc(Br)cc2)[nH]1)C(C)C; > 100 µM
5. COC(=O)Nc1ccc(-c2cnc([C@@H]3CCCN3C(=O)[C@@H](NC(=O)OC)C(C)C)[nH]2)cc1; > 100 µM
6. COC(=O)N[C@H](C(=O)N1CCC[C@H]1c1ncc(-c2ccc(-c3ccc(C#N)cc3)cc2)[nH]1)C(C)C; > 100 µM
7. COC(=O)N[C@H](C(=O)N1CCC[C@H]1c1nc(-c2ccc(-c3ccc(C(F)(F)F)cc3)cc2)c[nH]1)C(C)C; > 100 µM
8. COC(=O)N[C@H](C(=O)N1CCC[C@H]1c1ncc(-c2ccc(OC(F)(F)F)cc2)[nH]1)C(C)C; 49 µM
9. COC(=O)N[C@H](C(=O)N1CCC[C@H]1c1nc(Cl)c(-c2ccc(-c3ccc(C(F)(F)F)cc3)cc2)[nH]1)C(C)C; 11 µM
10. COC(=O)N[C@H](C(=O)N1CCC[C@H]1c1ncc(-c2ccc(-c3ccc(C(N)=O)cc3)cc2)[nH]1)C(C)C; > 100 µM

// input: 4 molecules below; output: CC50 for each
1. COC(=O)N[C@@H](CC(C)C)C(=O)N1CCC[C@H]1c1ncc(-c2ccc(-c3ccccc3)cc2)[nH]1
2. COC(=O)N[C@H](C(=O)N1CCC[C@H]1c1ncc(-c2ccc(C#N)cc2)[nH]1)C(C)C
3. COC(=O)N[C@H](C(=O)N1CCC[C@H]1c1ncc(-c2ccc(Cl)cc2Cl)[nH]1)C(C)C
4. COC(=O)N[C@H](C(=O)N1CCC[C@H]1c1ncc(-c2ccc(-c3ccc(N=[N+]=[N-])cc3)cc2)[nH]1)C(C)C

Result:
16 µM
> 100 µM
56 µM
37 µM
